# SYSTEM_TESTED: Histidine--tRNA ligase (Leishmania infantum) (UniProt A4I591)
# Sequence (whole entry): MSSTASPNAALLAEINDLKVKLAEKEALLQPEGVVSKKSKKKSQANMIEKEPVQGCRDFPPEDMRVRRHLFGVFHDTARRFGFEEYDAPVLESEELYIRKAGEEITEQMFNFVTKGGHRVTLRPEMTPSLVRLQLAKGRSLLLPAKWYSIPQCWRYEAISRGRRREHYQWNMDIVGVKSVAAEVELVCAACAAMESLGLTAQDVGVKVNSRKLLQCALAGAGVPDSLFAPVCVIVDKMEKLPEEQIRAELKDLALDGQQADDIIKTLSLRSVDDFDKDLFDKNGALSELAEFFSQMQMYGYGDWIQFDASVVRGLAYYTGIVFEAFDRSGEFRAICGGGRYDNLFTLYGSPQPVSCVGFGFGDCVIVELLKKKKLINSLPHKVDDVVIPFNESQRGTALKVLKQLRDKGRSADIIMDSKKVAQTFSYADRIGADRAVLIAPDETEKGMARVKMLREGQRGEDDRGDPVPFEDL
# PROTOCOL_DESCRIPTION: Leishmania infantum Histidine tRNA synthetase (LdHisRS)
# Type: functional
# Design: scale not given: in the data most compounds retested in dose-response had high values
# TEST_PARAMETERS: 30 µM
Screen size: about 69,000 compounds; about 420 (0.61%) showed an effect of 50% or more. The list comes from a sample in which strong results are over-represented; it also holds close analogues and randomly drawn compounds.
Everything with Percent Effect lower than 20% is Condition not met; everything else, including exactly 20%, is Condition met.

INSERT INTO assay_data (compound, group_label) VALUES
  ('Cc1cnc(N2CCN(C)CC2)nc1-c1ccnn1C', 'Condition not met'),
  ('O=C(Cc1csc(-c2ccco2)n1)N1CCN(c2cnccn2)CC1', 'Condition met'),
  ('COc1ccccc1N1CCC(CNCc2cccc(OC)c2OC)C1 (centres undefined)', 'Condition met'),
  ('O=C(C1CCC1)N1CCN(Cc2ccccc2F)[C@H]2CS(=O)(=O)C[C@H]21', 'Condition met'),
  ('COc1cnc(N2CCN(C)CC2)nc1-c1ccnn1C', 'Condition not met'),
  ('Cc1ncnc(N2CCCN(c3nc4ccccc4s3)CC2)c1C', 'Condition met'),
  ('Cn1cccc(NC(=O)NCc2cccc(CO)c2)c1=O', 'Condition met'),
  ('Cn1nc2c(cc1=O)CN(Cc1nc3ccccc3c(=O)[nH]1)CC2', 'Condition met'),
  ('CC(CCc1cccn1C)NC(=O)Nc1cccn(C)c1=O (centres undefined)', 'Condition met'),
  ('Cn1nc2c(cc1=O)CN(c1nc3ccccc3s1)CC2', 'Condition met'),
  ('c1ccc2sc(N3CCCN(c4ncnc5c4CCNC5)CC3)nc2c1', 'Condition met'),
  ('Cn1cccc(NC(=O)COc2ccc(Cl)cc2)c1=O', 'Condition met'),
  ('Cn1nc2c(cc1=O)CN(Cc1nc(-c3ccco3)no1)CC2', 'Condition met'),
  ('CN1CCN(c2ccccc2NC(=O)NCCc2ccc(O)cc2)CC1', 'Condition met'),
  ('c1ccc2sc(N3CCN(c4ncnc5c4CCC5)CC3)nc2c1', 'Condition not met'),
  ('O=C(C1CCOCC1)N1C[C@H]2C[C@H](OCc3ccccc3)C[C@H]2C1', 'Condition not met'),
  ('Cc1ccc(-c2nc(CC(=O)N3CCN(c4cnccn4)CC3)cs2)o1', 'Condition met'),
  ('COc1ccccc1N1CCC(CNCc2cccc(O)c2)C1 (centres undefined)', 'Condition met'),
  ('CCSCCC(C)NC(=O)Nc1cccn(C)c1=O (centres undefined)', 'Condition met'),
  ('O=C([C@H]1CN(Cc2ccoc2)C[C@H]2OCC[C@@H]12)N1CCCCO1', 'Condition met'),
  ('CCn1nc2c(cc1=O)CN(Cc1nc3ccccc3c(=O)[nH]1)CC2', 'Condition met'),
  ('CN1[C@H]2CC[C@@H]1CN(C(=O)c1nnc3n1CCCC3)CC2', 'Condition not met'),
  ('COc1cnc(N2CC(N3CCOCC3)C2)nc1-c1ccnn1C', 'Condition met');

----------
# key: entry, value: Percent Effect
# SYSTEM_TESTED: Histidine--tRNA ligase (Leishmania infantum)
# PROTOCOL_DESCRIPTION: Leishmania infantum Histidine tRNA synthetase (LdHisRS)
# Type: functional
# Parameters: scale not given: in the data most compounds retested in dose-response had high values
# TEST_PARAMETERS: 30 µM
The campaign covered roughly 69,000 compounds. About 420 (0.61%) showed an effect of 50% or more. Shown is part of a subset that was picked to be rich in strong results.
RECORDED_ENDPOINT: Percent Effect

INSERT INTO results (compound, system_tested, reported) VALUES
  ('Cc1nc(-c2ccc(CC(=O)N3CCN(C(=O)C4CC4)CC3)cc2)cs1', 'Histidine--tRNA ligase (Leishmania infantum)', '21.2%'),
  ('CC1(C)[C@H]2CC=C(CN3CCCn4nc(CNS(C)(=O)=O)cc4C3)[C@@H]1C2', 'Histidine--tRNA ligase (Leishmania infantum)', '10.6%'),
  ('CSCC(C)NS(=O)(=O)c1ccc(C)c(N(C)C)c1 (stereo not drawn)', 'Histidine--tRNA ligase (Leishmania infantum)', '19.3%'),
  ('CCCn1nc2c(cc1=O)CN(CCCS(N)(=O)=O)CC2', 'Histidine--tRNA ligase (Leishmania infantum)', '61.9%'),
  ('Cn1cc(CNc2cnn(CCO)c2)c(-c2ccncc2)n1', 'Histidine--tRNA ligase (Leishmania infantum)', '21.9%'),
  ('COc1ccc2c(c1)ncn2C[C@]1(O)CCCN2CCCC[C@@H]21', 'Histidine--tRNA ligase (Leishmania infantum)', '4.2%'),
  ('Cc1ccc(S(=O)(=O)N[C@H](CO)C(C)C)cc1N(C)C', 'Histidine--tRNA ligase (Leishmania infantum)', '53%'),
  ('CCOc1nnc(CN(C)C2CCCN(c3ccc(C)nn3)C2)s1 (stereo not drawn)', 'Histidine--tRNA ligase (Leishmania infantum)', '27%'),
  ('Cc1ccc(S(=O)(=O)NC(CO)CC(C)C)cc1N(C)C (stereo not drawn)', 'Histidine--tRNA ligase (Leishmania infantum)', '43.4%'),
  ('CNc1cc(C)nc(-c2cc(NC)nc3[nH]ccc23)n1', 'Histidine--tRNA ligase (Leishmania infantum)', '-2.04%'),
  ('COC[C@@]12CCO[C@@H]1CCN(C(=O)Cc1cccc(F)c1)C2', 'Histidine--tRNA ligase (Leishmania infantum)', '19.4%'),
  ('CCOc1nnc(CNC2CCCN(c3ccc(C)nn3)C2)s1 (stereo not drawn)', 'Histidine--tRNA ligase (Leishmania infantum)', '54.8%'),
  ('Cc1nc(-c2ccc(CC(=O)N3CCN(C(=O)C(C)C)CC3)cc2)cs1', 'Histidine--tRNA ligase (Leishmania infantum)', '63.6%'),
  ('CC(C)CNC(=O)[C@H]1C[C@@H]2CN(C(=O)NCC3CCCCC3)C[C@H]1O2', 'Histidine--tRNA ligase (Leishmania infantum)', '17.2%'),
  ('CNc1cc(-c2ccc(COCCN)cc2)c2cc[nH]c2n1', 'Histidine--tRNA ligase (Leishmania infantum)', '20.5%'),
  ('Cc1nc(CN2C[C@@H]3CN(C(=O)C4(C#N)CC4)C[C@@H]3C2=O)cs1', 'Histidine--tRNA ligase (Leishmania infantum)', '26.5%'),
  ('CCCn1nc2c(cc1=O)CN(CCCN1CCCC1=O)CC2', 'Histidine--tRNA ligase (Leishmania infantum)', '52.4%'),
  ('CCn1nc2c(cc1=O)CN(CCCN1CCCC1=O)CC2', 'Histidine--tRNA ligase (Leishmania infantum)', '30.7%'),
  ('COCCOCC(=O)N1C[C@@H]2CC[C@H](Oc3ccccc3)[C@@H]2C1', 'Histidine--tRNA ligase (Leishmania infantum)', '26.3%'),
  ('CNC(=O)[C@H]1C[C@@H]2CN(S(=O)(=O)c3ccccc3)C[C@@H]2N1C(C)=O', 'Histidine--tRNA ligase (Leishmania infantum)', '14.2%'),
  ('CCS(=O)(=O)N1CC[C@@H]2[C@H](CC1)N(CC(C)C)CCS2(=O)=O', 'Histidine--tRNA ligase (Leishmania infantum)', '10.5%'),
  ('O=C1N(Cc2cccnc2)C[C@H]2CN(S(=O)(=O)c3ccccc3)CCN12', 'Histidine--tRNA ligase (Leishmania infantum)', '13.5%'),
  ('Cc1nc(-c2ccc(CC(=O)N3CCNC(=O)C3)cc2)cs1', 'Histidine--tRNA ligase (Leishmania infantum)', '-9.09%');

----------
# key: entry, value: Percent Effect
# SYSTEM_TESTED: Histidine--tRNA ligase (Leishmania infantum) (UniProt A4I591)
# PROTOCOL_DESCRIPTION: Leishmania infantum Histidine tRNA synthetase (LdHisRS)
# Format: functional
# Design: scale not given: in the data most compounds retested in dose-response had high values
# TEST_PARAMETERS: 30 µM
Among all 69,000 compounds or so, about 420 (0.61%) showed an effect of 50% or more. The full list was thinned out, with strong results kept by preference.
RECORDED_ENDPOINT: Percent Effect (%)

INSERT INTO measurements (structure_smiles_string, units, reported) VALUES
  ('COCCN(CC1CC1)c1nc(CCN)nc2sc(C)c(C)c12', '%', 32.7),
  ('CNC(=O)[C@@]12CCO[C@@H]1CCN(S(=O)(=O)c1ccccc1)C2', '%', 15),
  ('O=C(c1ccco1)N1C[C@H]2CCCN(Cc3ccc(F)cc3)[C@H]2C1', '%', 10.9),
  ('Cc1ccc(C(=O)N2C[C@@H]3COC[C@]3(COc3cccnc3)C2)cn1', '%', 7.52),
  ('Cn1cc(CN2CC[C@@H]3[C@H]2CCC(=O)N3c2ccccc2)cn1', '%', 5.56),
  ('O=C(NCc1ccco1)[C@H]1CC[C@@H]2[C@@H](CCN2Cc2cccnc2)O1', '%', 23.3),
  ('Cn1ccc2c(-c3cc(N4CCOCC4)ncn3)ccnc21', '%', 9.52),
  ('O=C(NCc1ccco1)[C@@H]1CC[C@@H]2[C@@H](CCN2CC2CC2)O1', '%', 23.3),
  ('Cn1ccc2c(-c3cc(N)nc(N4CCOCC4)n3)ccnc21', '%', 19.1),
  ('CCN(CCN(C)C)c1nc(CCN)nc2sc(C)c(C)c12', '%', 54),
  ('O=S(=O)(c1cccnc1)N1C[C@@H]2CC[C@H](C1)N(Cc1ccccn1)C2', '%', 7.53),
  ('Cc1noc([C@H]2C[C@H]3OCC[C@H]3N(S(C)(=O)=O)C2)n1', '%', -20.2),
  ('O=C([C@@H]1CC[C@@H]2[C@@H](CCN2Cc2cccs2)O1)N1CCCCO1', '%', 17.1),
  ('CN(C)C(=O)CO[C@H]1CN(Cc2cccc(C#N)c2)[C@@H]2COC[C@H]12', '%', -11.4),
  ('O=C(C1=CCCC1)N1C[C@H](Oc2cccnc2)[C@H]2OCCC[C@H]21', '%', 3.85),
  ('O=C(NCc1cccnc1)[C@H]1CC[C@@H]2[C@@H](CCN2c2ncccn2)O1', '%', 7),
  ('c1csc(N2[C@H](Cn3cncn3)C[C@@H]3CNCC[C@@H]32)n1', '%', -6.84),
  ('N#Cc1cccc(CN2CCN(C(=O)C3CCC3)[C@@H]3CS(=O)(=O)C[C@@H]32)c1', '%', 23.3),
  ('Cn1cc(C(=O)N[C@H]2CN(Cc3nccs3)[C@@H]3CCCO[C@H]23)cn1', '%', 28.6),
  ('Cn1ccc2c(-c3cc(N4CCCCC4)ncn3)ccnc21', '%', 54.8),
  ('CN1C[C@@H]2CC[C@H](CC1=O)N2C(=O)c1cc2ccccc2[nH]c1=O', '%', 19.5);

The measured values listed here are drawn from ChEMBL document CHEMBL3988442.
